System: MDA-MB-231 breast
assay_comment: NCI tumour cell line growth inhibition, 48 h
reported_metric: log10 of TGI (log10 of the value in µM)
Please note: log10 values; quantity TGI; unit µM.

// below: answered compounds
compound: CN(C)CCN1C(=O)c2c(c3c4ccccc4n4c3c3c2c2ccccc2n3C2CC(O)C(O)C4(C)O2)C1=O (stereo not given)
log10 of TGI: 1.06
//
compound: Cc1cc(NCCCN(C)C)c2ccc3c(ccc4c(NCCCN(C)C)cc(C)nc43)c2n1
log10 of TGI: -0.33

Consider the compound Cc1c(C(=O)Nc2ccccc2)sc2ncn(Cc3cccc(Cl)c3)c(=O)c12 and give its measured log10 of TGI. 1.58

Try this compound too: CC(C)(C)C(=O)OCC1C(=O)OCC1C(=O)N1Cc2cc3ccccc3nc2C1 (stereo not given) 1.16

// same read-out, input: O=C1C(Cl)=C(OCCCl)C(=O)c2c(O)ccc(O)c21 1.03

---

Tested on: NCI-H226 lung
assay_comment: NCI tumour cell line growth inhibition, 48 h; in the data active = GI50 below about 0.43 µM; inactive = the rest
# output must be one of Y for active, N for inactive

Solved entries (count: 10):
molecule: O=C(N/N=C/C=C/c1ccc([N+](=O)[O-])o1)c1cc2ccccc2cc1O
assayed_target: NCI-H226 lung
category_label: N
//
molecule: O=C1OCC2=C1C(c1cccc(Cl)c1)c1cc3c(cc1N2CCO)OCCO3 (stereo unspecified)
assayed_target: NCI-H226 lung
category_label: Y
//
molecule: C[C@H]1CC[C@@]2(NC1)O[C@H]1C[C@H]3[C@@H]4CC[C@H]5C[C@@H](O)CC[C@]5(C)[C@H]4CC[C@]3(C)[C@H]1[C@@H]2C
assayed_target: NCI-H226 lung
category_label: N
//
molecule: CC1=C(c2cccc(O)c2)[C@H](c2ccc(OCCN3CC(CF)C3)cc2)Oc2ccc(O)cc21
assayed_target: NCI-H226 lung
category_label: N
//
molecule: CSC1=C(N)C(=O)c2[nH]cc(CO)c2C1=N
assayed_target: NCI-H226 lung
category_label: Y
//
molecule: O=C(Nc1cccc(-n2cc(-c3ccncc3)c(-c3ccc(Cl)c(O)c3)n2)c1)Nc1cc(C(F)(F)F)cc(C(F)(F)F)c1
assayed_target: NCI-H226 lung
category_label: N
//
molecule: CCCCOC(=O)N1CCN(/[N+]([O-])=N/Oc2ccc([N+](=O)[O-])cc2[N+](=O)[O-])CC1
assayed_target: NCI-H226 lung
category_label: N
//
molecule: C=Cc1cncc(C#N)c1CCc1c(C#N)cncc1C=C
assayed_target: NCI-H226 lung
category_label: N
//
molecule: Cc1c(C(=O)Nc2ccccc2)sc2ncn(Cc3cccc(Cl)c3)c(=O)c12
assayed_target: NCI-H226 lung
category_label: N
//
molecule: Cc1cc(C)nc(SC2=C(Nc3ccc(C)c(Cl)c3)C(=O)N(Cc3ccccc3)C2=O)n1
assayed_target: NCI-H226 lung
category_label: N

For Cc1cc2c(cc1Cl)SC1=NN(C)C(C)N1S2(=O)=O (stereo unspecified) , what call appears in the results of this test? N

---

TGI values, listed per item
System: NCI-H522 lung
assay_comment: NCI tumour cell line growth inhibition, 48 h

Illustrative cases are given below, each with its answer.
compound: Cc1nc(Nc2ccccc2)sc1C(=O)CC(=O)C(=O)Nc1c(C(C)C)cccc1C(C)C
reported_measurement: > 100 µM
--
compound: Nc1ncnc2c1N=C(c1ccc3c(c1)OCO3)CC(c1ccc([N+](=O)[O-])cc1)N2 (stereo not given)
reported_measurement: > 100 µM
--
compound: C=C(C(N)=O)c1ccc([N+](=O)[O-])o1
reported_measurement: 4.24 µM

Please give the measured TGI for this compound: O=C1C[C@@H](C(=O)OCc2ccccc2)NC(=O)C[C@@H](C(=O)OCc2ccccc2)NC(=O)C[C@@H](C(=O)OCc2ccccc2)N1 > 100 µM

NC(=O)CN(CC(N)=O)C(N)=O ? > 100 µM

---

Test system: SK-MEL-2 melanoma
assay_comment: NCI tumour cell line growth inhibition, 48 h; in the data active = GI50 below about 0.43 µM; inactive = the rest
Form entry, call: pick from active, inactive

molecule: Cc1c(Cl)cccc1C(=O)Nc1nc2c(s1)CN(C(=O)c1ccc(C(F)(F)F)cc1)CC2
category_label: active

Please let me know the test result on file for O=C1OCC2=C1C(c1cccc(Cl)c1)c1cc3c(cc1N2CCO)OCCO3 (stereo not given) . active

---

Test system: NCI-H522 lung
assay_comment: NCI tumour cell line growth inhibition, 48 h; in the data active = GI50 below about 0.43 µM; inactive = the rest
Select the matching outcome among class 1 for active, class 0 for inactive

molecule: Cc1cc(F)ccc1S(=O)(=O)Nc1cc(-c2c(O)ccc3ccccc23)c(O)c2ccccc12
category_label: class 0
//
molecule: CC1=C(C(=O)Nc2ccc3n[nH]c(C)c3c2)C(c2ccc(C(F)(F)F)cc2)CC(=O)N1 (stereo unspecified)
category_label: class 0
//
molecule: O=C1OCC2=C1C(c1cccc(Cl)c1)c1cc3c(cc1N2CCO)OCCO3 (stereo unspecified)
category_label: class 1
//
molecule: N#C/C(=C\c1ccsc1)c1nc2ccccc2o1
category_label: class 0
//
molecule: C=C1C(O)C2C(=C(CC)C13CC3)C(=O)C(C)(C)C2OC (stereo unspecified)
category_label: class 0

Okay, next one:
Name the outcome recorded for Cc1c(Cl)cccc1C(=O)Nc1nc2c(s1)CN(C(=O)c1ccc(C(F)(F)F)cc1)CC2 in the assay. class 1

---

System: DLD-1 colon
assay_comment: NCI tumour cell line growth inhibition, 48 h
reported_metric: TGI

compound: O=[N+]([O-])c1ccc(-n2nnc(C3=NCCN3)c2-c2ccccc2)cc1
TGI: > 100 µM
//
compound: C=C/C=C/NC(=O)OCc1ccccc1
TGI: > 100 µM
//
compound: CC(=O)[CH-]C(=O)c1ccccc1.CC(=O)[CH-]C(=O)c1ccccc1.CC[O-].CC[O-].[Hf+4]
TGI: > 100 µM
//
compound: O=C1C=CC(=O)C2=C1[C@@H](O)C1CC=CC3C(=O)O[C@@H]2C31 (stereo not given in full)
TGI: 37.9 µM

If you can, please state the reported TGI value of COc1c(O)c2c3c(cc(C)cc3c1C(C)C)OC2 . > 100 µM

---

Tested on: HOP-62 NSCLC
assay_comment: NCI tumour cell line growth inhibition, 48 h; in the data active means GI50 below about 0.43 µM; inactive means the rest
Your answer must be one of the following: yes (active), no (inactive)

Use the examples below as a reference point.
molecule: Cc1cc(NCCCN(C)C)c2ccc3c(ccc4c(NCCCN(C)C)cc(C)nc43)c2n1
category_label: yes

molecule: COc1cc(C(=O)c2c(-c3ccccc3)oc3c(OC)cccc23)cc(OC)c1OC
category_label: yes

molecule: COc1ccc(C/C(C)=C(/c2ccc(OCCN3CCCCC3)cc2)c2ccc(OC(=O)NCc3ccccc3)cc2)cc1
category_label: yes

molecule: Cc1ccccc1OCC(O)CN1CCN(c2ccc(Cl)cc2)CC1 (stereo not given)
category_label: no

Name the outcome recorded for O=C(N/N=C/C=C/c1ccc([N+](=O)[O-])o1)c1cc2ccccc2cc1O in the assay. no

Then what about the molecule CN1CCN(C(=O)C(C)(C)c2ccc(C(=O)Nc3cn4cc(-c5ccncc5)ccc4n3)cc2)CC1 ? yes

Another molecule: C[C@H]1CC[C@@]2(NC1)O[C@H]1C[C@H]3[C@@H]4CC[C@H]5C[C@@H](O)CC[C@]5(C)[C@H]4CC[C@]3(C)[C@H]1[C@@H]2C no

Now the same for Cc1c(Cl)cccc1C(=O)Nc1nc2c(s1)CN(C(=O)c1ccc(C(F)(F)F)cc1)CC2 yes

Quick one: CCCCOC(=O)N1CCN(/[N+]([O-])=N/Oc2ccc([N+](=O)[O-])cc2[N+](=O)[O-])CC1 no

Queued: Cc1cc2c(cc1Cl)SC1=NN(C)C(C)N1S2(=O)=O (stereo not given) no

---

Tested on: KM12 colon
assay_comment: NCI tumour cell line growth inhibition, 48 h
Catalogue of TGI readings, one per entry.

Consider the reported TGI for these compounds:
compound: O=C1c2cc3c(cc2[C@@H]2[C@H]1c1ccc([N+](=O)[O-])cc1C(=O)N2CCCBr)OCO3
TGI: 3.95 µM

compound: O=C1/C(=C/c2ccccc2)CN(C(=O)CCN2CCOCC2)C/C1=C\c1ccccc1
TGI: 2.99 µM

TGI lookup needed for COc1c(O)c(C=O)c2c(O)c(-c3c(C)cc4c(C(C)C)c(OC)c(O)c(C=O)c4c3O)c(C)cc2c1C(C)C , thanks. 16 µM

Next up: CCCCCCC[CH2][Sn]([CH2]CCCCCCC)([O]c1cccc2cccnc12)[O]c1cccc2cccnc12 4.19 µM

Item: C=C1CC2OC(=O)C(=C)C2C(O)C2C(=C)CCC12 (stereo unspecified) 22.6 µM

C[n+]1cccc2c(=O)c3ccccc3oc21 ? > 100 µM

Subsequent entry: CC(C)CNc1nc2ncnc(N)c2[nH]1 > 100 µM

Same thing, different compound: O=[N+]([O-])c1ccc(-n2nnc(C3=NCCN3)c2-c2ccccc2)cc1 > 100 µM

// query: Cc1ccc(OCC2OC(n3cnc4c(Cl)nc(N)nc43)CC2Oc2ccc(C)cc2)cc1 (stereo unspecified) > 100 µM

Now this one: COc1ccc(/C=C/c2cc(OC)c(OC)c(OC)c2)cc1 > 100 µM

Param item: CN(C)c1nc(N)nc(CS)n1 > 100 µM

How about CN1CCN(C(=O)C(C)(C)c2ccc(C(=O)Nc3cn4cc(-c5ccncc5)ccc4n3)cc2)CC1 ? > 60.3 µM

How about this compound: NNC(=O)C1CCC(=O)N1S(=O)(=O)c1ccccc1 (stereo unspecified) > 100 µM

Next compound up: COc1cc2c(cc1OC)[C@H](C)N1CCc3cc(OC)c(OC)cc3[C@@H]1C2 > 100 µM

Can you check COc1ccc(CC(N)c2ccc(OC)cc2)cc1 (stereo unspecified) next? > 100 µM

What do you have for Cc1ccccc1C1OC(=O)c2ccc3ccccc3c21 (stereo unspecified) ? 13.7 µM
